Test system: Two-spotted Mite (2-SM) Tetranychus urticae (Koch)
Test: Plant Dip Assay on Two-Spotted Mite, 2-SM PE
Type: in vivo
Conditions: infested Pinto Bean plants dipped 2-3 seconds, mortality after seven days, adult mites
outcomeMeasure: 2-SM PE: concentration at which 50% mortality occurs

INSERT INTO measurements (compound, measvalue) VALUES
  ('COc1ccc(OCCOC(=S)SCSC#N)cc1 [Compound 11]', '.05%'),
  ('Cc1ccccc1OCCOC(=S)SCSC#N [Compound 12]', '.01%'),
  ('Cc1ccc(SCCOC(=S)SCSC#N)cc1 [Compound 17]', '> .05%'),
  ('N#CSCSC(=S)OCCOc1ccccc1Cl [Compound 8]', '.05%'),
  ('COCCOC(=S)SCSC#N [Compound 3]', '.01%');

Using the record for CCOCCOC(=S)SCSC#N [Compound 1] , report its 2-SM PE: concentration at which 50% mortality occurs. .03%

I have this compound here, Cc1ccc(OCCOC(=S)SCSC#N)cc1 [Compound 10] , and I need its recorded 2-SM PE: concentration at which 50% mortality occurs. > .05%

Requested read-out: 2-SM PE: concentration at which 50% mortality occurs. Entry: N#CSCSC(=S)OCCSc1ccc2ccccc2c1 [Compound 15] > .05%
